Just for reference, ChEMBL document CHEMBL1201861 is where these values come from.

# Tested on: SK-LU-1;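 also: cell viability assay measuring growth inhibition of human SK-LU-1 cells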
# protocolDetails: cells
# Assay type: functional, cell-based
# experimentalConditions: Homo sapiens
# Description: SANGER: Inhibition of human SK-LU-1 cell growth in a cell viability assay.
Entries and their pIC50
Worth noting: pIC50 values are minus log10 of concentrations stated in mol/L.

Sample records with pIC50:
compound: N#C/C(=C1/Nc2ccccc2S1)c1ccnc(NCCc2cccnc2)n1
parameterMeasured: pIC50
assayValue: 5.33

compound: Fc1cc(-c2cc[nH]/c(=N/c3ccc(-n4cnc(N5CCOCC5)n4)cc3)n2)cc(N2CCOCC2)c1
parameterMeasured: pIC50
assayValue: 6.01

compound: C/C=C(/C)C(=O)O[C@H]1C(C)=C2[C@H]([C@@H]1OC(=O)CCCCCCC)[C@@](C)(OC(C)=O)C[C@H](OC(=O)CCC)[C@@]1(O)[C@H]2OC(=O)[C@@]1(C)O [THAPSIGARGIN]
parameterMeasured: pIC50
assayValue: 8.94

// pIC50 value for CC[C@]1(O)C[C@@H]2CN(CCc3c([nH]c4ccccc34)[C@@](C(=O)OC)(c3cc4c(cc3OC)N(C)[C@H]3[C@@](O)(C(=O)OC)[C@H](OC(C)=O)[C@]5(CC)C=CCN6CC[C@]43[C@@H]65)C2)C1 [VINBLASTINE] : 7.73

----------
# System: HSC-3
# protocolDetails: cells
# Assay type: functional, cell-based
# experimentalConditions: Homo sapiens
# Description: SANGER: Inhibition of human HSC-3 cell growth in a cell viability assay.
Friendly reminder: IC50 below 10 nM is yes (1), at or above is no (0).

structureSmilesString: O=c1[nH]c2ccccc2n1C1CCN(Cc2ccc(-c3nc4cc5[nH]cnc5cc4nc3-c3ccccc3)cc2)CC1
group: no (0)

structureSmilesString: Cn1c(=O)n(-c2ccc(C(C)(C)C#N)cc2)c2c3cc(-c4cnc5ccccc5c4)ccc3ncc21
group: no (0)

structureSmilesString: CCCS(=O)(=O)Nc1ccc(F)c(C(=O)c2c[nH]c3ncc(Cl)cc23)c1F
group: no (0)

structureSmilesString: CC(=O)c1c(C)c2cnc(Nc3ccc(N4CCNCC4)cn3)nc2n(C2CCCC2)c1=O
group: no (0)

For C[C@]1(c2nc3c(C(N)=O)cccc3[nH]2)CCCN1 , is the recorded IC50 below the cut-off of 10 nM?
no (0)

Confirm or reject: IC50 of CC[C@@]1(O)C(=O)OCc2c1cc1n(c2=O)Cc2cc3ccccc3nc2-1 lies strictly below 10 nM
yes (1)

In plain terms, does C/C=C(/C)C(=O)O[C@H]1C(C)=C2[C@H]([C@@H]1OC(=O)CCCCCCC)[C@@](C)(OC(C)=O)C[C@H](OC(=O)CCC)[C@@]1(O)[C@H]2OC(=O)[C@@]1(C)O come in under 10 nM for IC50?
no (0)

# TODO verify IC50 < 10 nM strictly for this molecule: CCNC(=O)c1noc(-c2cc(C(C)C)c(O)cc2O)c1-c1ccc(CN2CCOCC2)cc1
yes (1)

----------
# Tested on: BEN;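 also: growth inhibition of the BEN cell line, read out with a cell viability assay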
# protocolDetails: cells
# Assay type: functional, cell-based
# experimentalConditions: Homo sapiens
# Description: SANGER: Inhibition of human BEN cell growth in a cell viability assay.
Collected IC50 values appear next to each entry.
Quick note: give the figure in nM, leave out the unit.

Worked examples follow.
structureSmilesString: Fc1cc(-c2cc[nH]/c(=N/c3ccc(-n4cnc(N5CCOCC5)n4)cc3)n2)cc(N2CCOCC2)c1
parameterMeasured: IC50
assayValue: 585
--
structureSmilesString: CC(C)=CC[C@@H](O)C1=CC(=O)c2c(O)ccc(O)c2C1=O
parameterMeasured: IC50
assayValue: 814

Given item CO[C@@]12[C@H](COC(N)=O)C3=C(C(=O)C(C)=C(N)C3=O)N1C[C@@H]1N[C@@H]12 , the value recorded as its IC50 is 935

----------
# Test system: NCI-H1882;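 also: growth inhibition of the cell line, determined with a viability assay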
# protocolDetails: cells
# Type: functional, cell-based
# experimentalConditions: Homo sapiens
# Description: SANGER: Inhibition of human NCI-H1882 cell growth in a cell viability assay.
parameterMeasured: IC50 (µM)
Reply numerically in µM, unit not repeated.

structureSmilesString: Fc1cc(-c2cc[nH]/c(=N/c3ccc(-n4cnc(N5CCOCC5)n4)cc3)n2)cc(N2CCOCC2)c1
IC50 [µM]: 1.08

Now take the following molecule into account.
Memo: CO[C@@]12[C@H](COC(N)=O)C3=C(C(=O)C(C)=C(N)C3=O)N1C[C@@H]1N[C@@H]12 , reported IC50: 0.257

----------
# System: Ca-Ski;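 also: cell viability assay measuring inhibition of Ca-Ski cell growth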
# protocolDetails: cells
# Type: functional, cell-based
# experimentalConditions: Homo sapiens
# Description: SANGER: Inhibition of human Ca-Ski cell growth in a cell viability assay.
Quick reference for IC50 among some compounds
Give the number; µM is assumed, so skip it.

Memo: Cn1c(=O)n(-c2ccc(C(C)(C)C#N)cc2)c2c3cc(-c4cnc5ccccc5c4)ccc3ncc21 [DACTOLISIB] , reported IC50: 0.156

The measured IC50 associated with CC(C)=CC[C@@H](O)C1=CC(=O)c2c(O)ccc(O)c2C1=O [SHIKONIN] reads 0.65

----------
# Tested on: OMC-1;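 also: growth inhibition of the OMC-1 cell line, measured by a cell viability assay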
# protocolDetails: cells
# Type: functional, cell-based
# experimentalConditions: Homo sapiens
# Description: SANGER: Inhibition of human OMC-1 cell growth in a cell viability assay.
pIC50: −log10 of the molar value.
parameterMeasured: pIC50

Here are 6 compounds together with their reported answers.
compound: N#C/C(=C1/Nc2ccccc2S1)c1ccnc(NCCc2cccnc2)n1
pIC50: < 5.10
//
compound: CC(=O)c1c(C)c2cnc(Nc3ccc(N4CCNCC4)cn3)nc2n(C2CCCC2)c1=O
pIC50: < 5.40
//
compound: COc1cc(Nc2c(C#N)cnc3cc(OCCCN4CCN(C)CC4)c(OC)cc23)c(Cl)cc1Cl
pIC50: < 5.70
//
compound: Cn1c(=O)n(-c2ccc(C(C)(C)C#N)cc2)c2c3cc(-c4cnc5ccccc5c4)ccc3ncc21
pIC50: 7.00
//
compound: CC[C@]1(O)C[C@@H]2CN(CCc3c([nH]c4ccccc34)[C@@](C(=O)OC)(c3cc4c(cc3OC)N(C)[C@H]3[C@@](O)(C(=O)OC)[C@H](OC(C)=O)[C@]5(CC)C=CCN6CC[C@]43[C@@H]65)C2)C1
pIC50: < 7.00
//
compound: CO[C@@]12[C@H](COC(N)=O)C3=C(C(=O)C(C)=C(N)C3=O)N1C[C@@H]1N[C@@H]12
pIC50: 6.41

The recorded pIC50 for entry O=c1[nH]c2ccccc2n1C1CCN(Cc2ccc(-c3nc4cc5[nH]cnc5cc4nc3-c3ccccc3)cc2)CC1 equals < 5.59

CC(O)(CS(=O)(=O)c1ccc(F)cc1)C(=O)Nc1ccc(C#N)c(C(F)(F)F)c1 (stereo not given) [BICALUTAMIDE] yielded pIC50 of < 5.99

What the record says about Cc1[nH]c(/C=C2\C(=O)Nc3ccc(S(=O)(=O)Cc4c(Cl)cccc4Cl)cc32)c(C)c1C(=O)N1CCC[C@@H]1CN1CCCC1 : pIC50 is < 5.70

The recorded pIC50 for entry Cc1n[nH]c2ccc(-c3cncc(OC[C@@H](N)Cc4c[nH]c5ccccc45)c3)cc12 equals 6.72

----------
Measured IC50 of individual entries
# Test system: DMS-273
# protocolDetails: cells
# Format: functional, cell-based
# experimentalConditions: Homo sapiens
# Description: SANGER: Inhibition of human DMS-273 cell growth in a cell viability assay.
Quick reminder: number only, in nM, skip the unit.

# example entries with known answers
structureSmilesString: O=C(CCCCCCC(=O)Nc1ccccc1)NO
systemTested: DMS-273
unitAnnotation: nM
assayValue: 2150
//
structureSmilesString: N#C/C(=C1/Nc2ccccc2S1)c1ccnc(NCCc2cccnc2)n1
systemTested: DMS-273
unitAnnotation: nM
assayValue: 1490

response.value for CC(C)=CC[C@@H](O)C1=CC(=O)c2c(O)ccc(O)c2C1=O (field: IC50) = 396

----------
# Tested on: COLO-741
# protocolDetails: cells
# Assay type: functional, cell-based
# experimentalConditions: Homo sapiens
# Description: SANGER: Inhibition of human COLO-741 cell growth in a cell viability assay.
# IC50 values compiled below

Use the examples below as a reference point.
compound: CCCS(=O)(=O)Nc1ccc(F)c(C(=O)c2c[nH]c3ncc(Cl)cc23)c1F
IC50: 8.02 µM
//
compound: Fc1cc(-c2cc[nH]/c(=N/c3ccc(-n4cnc(N5CCOCC5)n4)cc3)n2)cc(N2CCOCC2)c1
IC50: > 5.12 µM

compound CC(O)(CS(=O)(=O)c1ccc(F)cc1)C(=O)Nc1ccc(C#N)c(C(F)(F)F)c1 (stereo unspecified) [BICALUTAMIDE] , IC50 observed: > 1.02 µM

Reported IC50 for CC[C@]1(O)C[C@@H]2CN(CCc3c([nH]c4ccccc34)[C@@](C(=O)OC)(c3cc4c(cc3OC)N(C)[C@H]3[C@@](O)(C(=O)OC)[C@H](OC(C)=O)[C@]5(CC)C=CCN6CC[C@]43[C@@H]65)C2)C1 was 0.00214 µM

// O=c1[nH]c2ccccc2n1C1CCN(Cc2ccc(-c3nc4cc5[nH]cnc5cc4nc3-c3ccccc3)cc2)CC1 : IC50 value = > 2.56 µM

According to the records, this compound C/C=C(/C)C(=O)O[C@H]1C(C)=C2[C@H]([C@@H]1OC(=O)CCCCCCC)[C@@](C)(OC(C)=O)C[C@H](OC(=O)CCC)[C@@]1(O)[C@H]2OC(=O)[C@@]1(C)O displays IC50 of 0.0109 µM
